- Tgt: CYP2C9 (Homo sapiens)
- Sequence (P11712 whole entry, species assumed): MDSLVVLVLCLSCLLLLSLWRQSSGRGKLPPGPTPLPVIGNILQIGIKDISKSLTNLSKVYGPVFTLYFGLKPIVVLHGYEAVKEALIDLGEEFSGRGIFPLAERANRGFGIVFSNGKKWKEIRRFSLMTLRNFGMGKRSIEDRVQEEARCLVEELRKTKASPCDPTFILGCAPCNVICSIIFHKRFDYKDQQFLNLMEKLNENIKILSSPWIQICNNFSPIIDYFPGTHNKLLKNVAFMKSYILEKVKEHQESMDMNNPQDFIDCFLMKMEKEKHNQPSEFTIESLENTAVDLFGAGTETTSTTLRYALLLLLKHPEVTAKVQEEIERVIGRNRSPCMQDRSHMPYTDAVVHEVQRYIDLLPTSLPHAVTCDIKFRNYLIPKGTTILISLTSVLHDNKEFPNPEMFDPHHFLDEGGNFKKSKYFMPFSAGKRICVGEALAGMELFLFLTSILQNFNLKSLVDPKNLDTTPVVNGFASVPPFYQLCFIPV
- Assay Name: in vitro
- Condition Description: CYP2C9 enzyme, pH 7.4, probe BOMCC (0.01 mM)
Quantity Kind: inhibition at 30 min, 1 µM (%)
The figure you give is taken to be in %; do not add the unit.

For reference, reported inhibition at 30 min, 1 µM for C=CCn1c(=O)c2cnc(Nc3ccc(N4CCN(C)CC4)cc3)nc2n1-c1cccc(C(C)(C)O)n1 stands at 15.4

###

- Tested on: MIA PaCa2 cells
- Assay Name: Anti-proliferative effect on MIA PaCa2 cells by Cell Titer-Glo
- Format: cell-based
- Condition Description: Homo sapiens, MIA PaCa-2, 72 h, 3 days, read-out: MIA PaCa 2 (IC50, inhibition of proliferation in vitro)
Quantity Kind: IC50

The cases that follow already have their IC50 on record.
>  <Compound>
C=CCn1c(=O)c2cnc(Nc3ccc(N4CC5CC(CN(CCF)C5)C4)cc3)nc2n1-c1cccc(C(C)(C)O)n1 [Compound 37]

>  <Tgt>
MIA PaCa2 cells

>  <IC50>
0.1 to 1 µM

$$$$
>  <Compound>
C=CCn1c(=O)c2cnc(Nc3ccc(N4[C@@H]5C[C@H]4CN(C)C5)cc3)nc2n1-c1cccc(C(C)(C)O)n1 [Compound 43]

>  <Tgt>
MIA PaCa2 cells

>  <IC50>
2 to 5 µM

$$$$
>  <Compound>
C=CCn1c(=O)c2cnc(Nc3ccc(C4(O)CCN(C)CC4)cc3)nc2n1-c1cccc(C(C)(C)O)n1 [Compound 35]

>  <Tgt>
MIA PaCa2 cells

>  <IC50>
1 to 2 µM

$$$$

Below: the item to evaluate.
response.value for C=CCn1c(=O)c2cnc(Nc3ccc(C4CCN(C)CC4)cc3)nc2n1-c1ccc2ccn(CC)c2n1 [Compound 77] (field: IC50) = 1 to 2 µM

###

- Tgt: CYP2B6 (Homo sapiens)
- Sequence (P20813 1-491): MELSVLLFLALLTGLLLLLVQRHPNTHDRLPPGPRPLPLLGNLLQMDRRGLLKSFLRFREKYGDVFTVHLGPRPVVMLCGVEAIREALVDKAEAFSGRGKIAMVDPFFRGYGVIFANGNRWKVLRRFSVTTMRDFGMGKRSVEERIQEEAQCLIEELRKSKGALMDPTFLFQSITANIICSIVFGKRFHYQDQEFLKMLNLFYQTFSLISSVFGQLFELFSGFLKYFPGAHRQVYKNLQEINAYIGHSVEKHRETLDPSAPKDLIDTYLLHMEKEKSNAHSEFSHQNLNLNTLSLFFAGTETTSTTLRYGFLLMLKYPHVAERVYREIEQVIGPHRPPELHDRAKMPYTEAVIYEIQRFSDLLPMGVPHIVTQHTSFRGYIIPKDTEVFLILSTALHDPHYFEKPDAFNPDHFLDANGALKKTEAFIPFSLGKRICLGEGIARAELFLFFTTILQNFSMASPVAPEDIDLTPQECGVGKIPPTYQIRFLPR
- Assay Name: CYP450 isoform enzymatic inhibition, 2B6
- Format: in vitro ADME
- Condition Description: CYP2B6 enzyme, pH 7.4, read-out: CYP inhibiton/% 2B6
Quantity Kind: inhibition at 30 min, 10 µM (%)
Could you give me the number in %? Just the number is fine.

# value of inhibition at 30 min, 10 µM, CYP2B6 (Homo sapiens), item C=CCn1c(=O)c2cnc(Nc3ccc(N4CCN(C)CC4)cc3)nc2n1-c1cccc(C(C)(C)O)n1 [AZD1775] = 17.4
